MIC: recorded values
Tested on: Escherichia coli K-12
Experiment: Minimal inhibitory concentration, agar dilution streak method
Type: cell-based
Conditions: K12, nutrient agar, 37° C, 18 hours, read-out: Minimal inhibitory concentration
Field: numeric (µg/mL). Do not append units.

Examples with answers:
molecule	endpoint-unit	MIC
NCC[C@H](O)C(=O)N[C@@H]1C[C@H](N)[C@@H](O[C@H]2O[C@H](CN)[C@@H](O)[C@H](O)[C@H]2N)[C@H](O[C@@H]2O[C@H](CO)[C@@H](O)[C@H]2O)[C@H]1O [Butirosin B]	µg/mL	0.78
NC[C@@H]1CC[C@@H](N)[C@@H](O[C@H]2[C@H](O[C@@H]3O[C@H](CO)[C@@H](O)[C@H]3O)[C@@H](O)[C@H](N)C[C@@H]2N)O1 [3',4'-dideoxyribostamycin]	µg/mL	3.12

Query string: Assign MIC to the following record: NC[C@H]1O[C@H](O[C@H]2[C@H](O)[C@@H](O[C@H]3O[C@H](CO)[C@@H](O)[C@H](N)[C@H]3O)[C@H](N)C[C@@H]2N)[C@H](N)[C@@H](O)[C@@H]1O [Kanamycin B, kanamycin B]
Result string: 0.78

###

MIC: recorded values
System: Escherichia coli K-12 JR 66/W 677
Assay: Minimal inhibitory concentration, agar dilution streak method
Type: cell-based
Details: Escherichia coli, 18 h, read-out: minimum inhibitory concentrations
Field: numeric (µg/mL). Do not append units.

NCC[C@H](O)C(=O)N[C@@H]1C[C@H](N)[C@@H](O[C@H]2O[C@H](CN)[C@@H](O)C[C@H]2N)[C@H](O)[C@H]1O[C@H]1O[C@H](CO)[C@@H](O)[C@H](N)[C@H]1O 3.12

Query string: Assign MIC to the following record: NC[C@@H]1CC[C@@H](N)[C@@H](O[C@H]2[C@H](O)[C@@H](O[C@H]3O[C@H](CO)[C@@H](O)[C@H](N)[C@H]3O)[C@H](N)C[C@@H]2N)O1
Result string: 100

Query string: Assign MIC to the following record: CNC[C@H]1O[C@H](O[C@H]2[C@H](O)[C@@H](O[C@H]3O[C@H](CO)[C@@H](O)[C@H](N)[C@H]3O)[C@H](NC(=O)[C@@H](O)CCN)C[C@@H]2N)[C@H](N)C[C@@H]1O
Result string: 3.12

Query string: Assign MIC to the following record: NCC[C@H](O)C(=O)N[C@@H]1C[C@H](N)[C@@H](O[C@H]2O[C@H](CN)[C@@H](O)C[C@H]2N)[C@H](O[C@@H]2O[C@H](CO)[C@@H](O)[C@H]2O)[C@H]1O
Result string: 3.12

Query string: Assign MIC to the following record: NCC[C@H](O)C(=O)N[C@@H]1C[C@H](N)[C@@H](O[C@H]2O[C@H](CN)[C@@H](O)C[C@H]2N)[C@H](O)[C@H]1O
Result string: 6.25
